# Test system: SARS-CoV-2 strain BavPat1
# EXPERIMENT: microbe, parasite or virus in culture
# DETAILS: Severe acute respiratory syndrome coronavirus 2, Vero C1008, 48 h
Non-standard residues stand in square brackets, D forms with d. Residues, ends and D or L forms follow the SMILES beside them. *: point of attachment. Nva = CCC[C@H](N)C(=O)O; Cbz = O=C(OCc1ccccc1)*
PROPERTY MEASURED: EC50 (µM)
I only need the number, in µM, no unit after it.

molecule="CC(C)C[C@H](NC(=O)[C@H](Cc1ccccc1)NC(=O)c1cnccn1)B(O)O [Compound 9, reference compound]" property_measured=EC50 unit_info=µM recorded_value=1.05
molecule="CC(C)C[C@@H](C=O)NC(=O)[C@H](CC(C)C)NC(=O)[C@H](CC(C)C)NC(=O)Cc1ccc(F)cc1F [Compound 8]" property_measured=EC50 unit_info=µM recorded_value=0.52

Now, please, on to the next molecule.
get_value(item= CCC[C@@H](C=O)NC(=O)[C@H](CC(C)C)NC(=O)[C@H](CC(C)C)NC(=O)OCc1ccccc1 [Compound 2] (Cbz-Leu-Leu-[Nva]-aldehyde) , readout=EC50) returns 0.06

* * *

# Tested on: SARS-CoV-2 strain BavPat1
# EXPERIMENT: microbe, parasite or virus in culture
# DETAILS: Severe acute respiratory syndrome coronavirus 2, Vero C1008, 48 h
Residues, ends and D or L forms follow the SMILES beside them. *: point of attachment. Cbz = O=C(OCc1ccccc1)*
PROPERTY MEASURED: pEC50
Please report pEC50 as the negative decimal logarithm of the molar concentration, giving only the number.

Look over these answered cases.
molecule="CC(C)C[C@@H](C=O)NC(=O)[C@H](CC(C)C)NC(=O)[C@H](CC(C)C)NC(=O)OCc1ccccc1 [Compound 1] (Cbz-Leu-Leu-Leu-aldehyde)" recorded_value=6.92
molecule="CC(C)C[C@@H](C=O)NC(=O)[C@H](Cc1ccccc1)NC(=O)[C@H](CC(C)C)NC(=O)OCc1ccccc1 [Compound 6] (Cbz-Leu-Phe-Leu-aldehyde)" recorded_value=6.51
molecule="CC(C)C[C@@H](C=O)NC(=O)[C@H](CC(C)C)NC(=O)[C@H](Cc1ccccc1)NC(=O)OCc1ccccc1 [Compound 4] (Cbz-Phe-Leu-Leu-aldehyde)" recorded_value=6.89

Record summary for `CC(C)C[C@@H](C=O)NC(=O)[C@H](CC(C)C)NC(=O)[C@H](CC(C)C)NC(=O)c1cnccn1` : reported pEC50 = 6.17

* * *

# EXPERIMENT: Cytotoxicity in VeroE6 cells (CellTiter Blue)
# DETAILS: African green monkey
PROPERTY MEASURED: CC50 at 2 days

Entry `CC(C)C[C@@H](C=O)NC(=O)[C@H](CC(C)C)NC(=O)[C@H](CC(C)C)NC(=O)c1cnccn1` — recorded CC50 at 2 days = > 2000 nM

* * *

# EXPERIMENT: in vitro
# DETAILS: African green monkey
Non-standard residues stand in square brackets, D forms with d. Residues, ends and D or L forms follow the SMILES beside them. *: point of attachment. Nva = CCC[C@H](N)C(=O)O; Cbz = O=C(OCc1ccccc1)*
Attribute: CC50 at 2 days

Answered examples (2):
compound="CC(C)C[C@@H](C=O)NC(=O)[C@H](CC(C)C)NC(=O)[C@H](CC(C)C)NC(=O)Cc1ccc(F)cc1F [Compound 8]" recorded_value="> 2 µM"
compound="CCC[C@@H](C=O)NC(=O)[C@H](CC(C)C)NC(=O)[C@H](CC(C)C)NC(=O)OCc1ccccc1 [Compound 2] (Cbz-Leu-Leu-[Nva]-aldehyde)" recorded_value="> 2 µM"

Entry CC(C)C[C@H](NC(=O)OCc1ccccc1)C(=O)N[C@@H](CC(C)C)C(=O)N[C@H](C=O)Cc1ccccc1 [Compound 5] (Cbz-Leu-Leu-Phe-aldehyde) ; CC50 at 2 days = > 2 µM
